Just for reference, patent US20260374754A1 is where these values come from.

# study.system: human activated kallikrein enzyme (Homo sapiens, UniProt P03952)
# Sequence (P03952 391-638 limits assumed): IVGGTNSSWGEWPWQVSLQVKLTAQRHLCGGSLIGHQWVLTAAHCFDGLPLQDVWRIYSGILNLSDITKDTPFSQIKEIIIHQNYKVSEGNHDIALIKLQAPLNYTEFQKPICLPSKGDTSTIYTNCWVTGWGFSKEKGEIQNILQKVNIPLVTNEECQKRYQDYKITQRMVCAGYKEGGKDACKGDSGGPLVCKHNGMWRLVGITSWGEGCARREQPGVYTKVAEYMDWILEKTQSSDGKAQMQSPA
# Sequence (P03952 20-390 partner limits assumed): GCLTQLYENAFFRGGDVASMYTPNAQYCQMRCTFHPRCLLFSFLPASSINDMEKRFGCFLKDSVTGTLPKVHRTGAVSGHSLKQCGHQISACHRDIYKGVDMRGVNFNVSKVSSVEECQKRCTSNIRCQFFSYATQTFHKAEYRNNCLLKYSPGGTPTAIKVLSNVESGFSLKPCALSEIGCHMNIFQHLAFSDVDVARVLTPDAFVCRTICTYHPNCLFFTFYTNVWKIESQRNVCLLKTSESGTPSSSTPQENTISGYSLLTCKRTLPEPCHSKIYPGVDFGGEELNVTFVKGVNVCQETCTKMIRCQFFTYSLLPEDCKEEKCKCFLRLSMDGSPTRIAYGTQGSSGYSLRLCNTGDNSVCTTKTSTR
# assay.overview: Inhibition of human activated plasma kallikrein, fluorogenic PFR-AMC substrate, 500 pM enzyme format
# Type: biochemical
# setup.conditions: 500 pM activated kallikrein; 300 μM PFR-AMC; 30 min preincubation; 10 min room temperature; pH 7.5; read-out: Primary Dose Response Assay: Average EC50
pEC50: −log10 of the molar value.
# pEC50 annotations

compound	study.system	pEC50
C/C=C(/c1ccc(CNc2cc(NCc3c(C)cc4c(N)nccc4c3C)ncn2)cc1)n1cccn1 [Example I-483]	human activated kallikrein enzyme (Homo sapiens, UniProt P03952)	> 9.00
Cc1cc2c(N)nccc2c(C)c1CNc1cc(NC(C)c2ccc3ncc(Cl)cc3c2)ncn1 (stereo not drawn) [Example 310]	human activated kallikrein enzyme (Homo sapiens, UniProt P03952)	> 9.00
COC(=O)C12CC1CN(C(=O)Cc1ccc(Cn3cc(C(=O)NCc4c(C)cc5c(N)nccc5c4C)cn3)cc1)C2 (stereo not drawn) [Example 217]	human activated kallikrein enzyme (Homo sapiens, UniProt P03952)	8.00 to 9.00
Cc1c(CNC(=O)c2cnn(Cc3ccccc3)c2)c(C2(C)CC2)cc2c(N)nccc12 [Example 175]	human activated kallikrein enzyme (Homo sapiens, UniProt P03952)	7.00 to 8.00
Cc1cc2c(N)nccc2c(C)c1CNc1cc(NCc2ccc(Cn3cccn3)cc2)cnn1 [Example 447]	human activated kallikrein enzyme (Homo sapiens, UniProt P03952)	> 9.00

Prompt: For the record Cc1ccc2nc(C(C)n3cc(C(=O)NCc4c(C)cc5c(N)nccc5c4C)cn3)cn2c1 (single isomer, unassigned) [Example 12] , what value of pEC50 is listed for human activated kallikrein enzyme (Homo sapiens, UniProt P03952)?
Completion: > 9.00

Prompt: Likewise for Cc1cc2c(N)nccc2c(C)c1CNc1cc(OCc2cnc(N3CCCC3)nc2)ncn1 [Example 298] ?
Completion: 7.00 to 8.00
